Give Ki for every item shown.
Please respond with the number in µM and leave the unit unwritten.

## Task Report measured Ki on GST-Bcl-xL (Homo sapiens, UniProt Q07817); entry: CS(=O)(=O)c1cccc(Cn2cc(-c3ccc(N4CCc5cccc(C(=O)Nc6nc7ccccc7s6)c5C4)nc3C(=O)O)cn2)c1 [Example 69]
Sequence (Q07817 whole entry): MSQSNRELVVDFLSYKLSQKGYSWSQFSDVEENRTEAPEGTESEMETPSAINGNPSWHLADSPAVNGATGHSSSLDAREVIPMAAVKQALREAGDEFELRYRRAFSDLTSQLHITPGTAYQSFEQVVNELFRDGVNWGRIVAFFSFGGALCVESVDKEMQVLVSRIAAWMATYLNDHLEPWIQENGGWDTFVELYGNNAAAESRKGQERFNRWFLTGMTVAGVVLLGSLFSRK
## Result 0.091

## Task Report measured Ki on GST-Bcl-xL (Homo sapiens, UniProt Q07817); entry: O=C(Nc1nc2ccccc2s1)c1cccc2c1CN(c1ccc(-c3cn(Cc4ccccc4)c4cnccc34)c(C(=O)O)n1)CC2 [Example 188]
## Result 0.0005

## Task Report measured Ki on GST-Bcl-xL (Homo sapiens, UniProt Q07817); entry: O=C(Nc1nc2ccccc2s1)c1cccc2c1CN(c1ccc(-c3cnn(-c4ccccc4)c3)c(C(=O)O)n1)CC2 [Example 23]
## Result 0.182

## Task Report measured Ki on GST-Bcl-xL (Homo sapiens, UniProt Q07817); entry: O=Cc1cccc(Cn2cc(-c3ccc(N4CCc5cccc(C(=O)Nc6nc7ccccc7s6)c5C4)nc3C(=O)O)cn2)c1 [Example 64]
## Result 0.061

## Task Report measured Ki on GST-Bcl-xL (Homo sapiens, UniProt Q07817); entry: Cc1c(-c2ccc(N3CCc4cccc(C(=O)Nc5nc6ccccc6s5)c4C3)nc2C(=O)O)cnn1Cc1ccccc1F [Example 41]
## Result 0.001
